target: sGC α1/β1 heterodimer (Homo sapiens, UniProt Q02108+Q02153); construct: expressed in transfected cells; experiment: Cell-Based sGC Functional Assay (CASA Assay), cGMP generation in CHO-K1/sGC cells;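 also: reference Compound A is a published heme-dependent sGC activator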; settings: maximum cGMP production of Compound A set to 100% activation, read-out: % Act. (percent activation relative to Compound A)
Sequence (Q02108 whole entry): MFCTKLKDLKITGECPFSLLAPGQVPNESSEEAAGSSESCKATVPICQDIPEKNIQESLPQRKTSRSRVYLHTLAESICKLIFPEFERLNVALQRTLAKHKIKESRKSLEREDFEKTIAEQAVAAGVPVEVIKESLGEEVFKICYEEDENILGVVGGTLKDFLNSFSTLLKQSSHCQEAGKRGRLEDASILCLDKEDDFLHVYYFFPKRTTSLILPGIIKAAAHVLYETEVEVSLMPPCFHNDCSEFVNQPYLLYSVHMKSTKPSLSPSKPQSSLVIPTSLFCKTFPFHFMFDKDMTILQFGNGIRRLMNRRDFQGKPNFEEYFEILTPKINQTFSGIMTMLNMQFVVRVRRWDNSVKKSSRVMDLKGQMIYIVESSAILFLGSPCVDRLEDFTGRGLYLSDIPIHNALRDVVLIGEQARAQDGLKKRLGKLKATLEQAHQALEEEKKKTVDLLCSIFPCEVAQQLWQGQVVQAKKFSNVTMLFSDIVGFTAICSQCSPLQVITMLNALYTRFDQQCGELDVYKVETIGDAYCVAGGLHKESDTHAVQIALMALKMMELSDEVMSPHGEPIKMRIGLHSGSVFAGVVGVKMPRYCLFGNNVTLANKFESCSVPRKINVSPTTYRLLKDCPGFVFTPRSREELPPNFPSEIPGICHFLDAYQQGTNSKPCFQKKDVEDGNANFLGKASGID
Sequence (Q02153 whole entry): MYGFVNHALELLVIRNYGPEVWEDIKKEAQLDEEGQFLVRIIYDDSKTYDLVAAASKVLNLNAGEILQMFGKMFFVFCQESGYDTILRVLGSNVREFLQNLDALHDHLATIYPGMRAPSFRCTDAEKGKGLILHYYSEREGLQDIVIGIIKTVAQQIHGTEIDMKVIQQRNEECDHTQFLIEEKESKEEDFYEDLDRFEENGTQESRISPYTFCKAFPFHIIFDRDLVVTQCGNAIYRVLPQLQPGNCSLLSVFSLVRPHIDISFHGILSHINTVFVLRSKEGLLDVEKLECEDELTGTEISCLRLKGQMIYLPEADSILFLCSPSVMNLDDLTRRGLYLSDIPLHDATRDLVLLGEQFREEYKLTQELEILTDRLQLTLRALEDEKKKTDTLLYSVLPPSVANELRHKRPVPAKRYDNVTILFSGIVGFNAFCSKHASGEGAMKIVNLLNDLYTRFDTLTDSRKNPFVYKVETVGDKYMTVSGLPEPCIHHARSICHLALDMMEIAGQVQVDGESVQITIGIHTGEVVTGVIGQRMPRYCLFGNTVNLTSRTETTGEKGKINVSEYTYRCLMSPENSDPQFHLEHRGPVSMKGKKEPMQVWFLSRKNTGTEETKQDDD
RECORDED_METRIC: Emax (%)

Worked set:
{"columns": ["COMPOUND", "Emax, %"],
 "data": [
  ["CC1(c2ccc(Cl)c(F)c2)C(=O)Nc2nc(-c3cn4ncnc4c(CCC(F)(F)F)n3)nc(O)c21 (stereo not shown) [Example 153B]", 104],
  ["CCCCc1nc(-c2nc(O)c3c(n2)NC(=O)C3(C)c2ccc(Cl)cn2)cn2ncnc12 (stereo not shown) [Example 160A]", 96],
  ["C[C@@]1(c2ccc(F)cc2)C(=O)Nc2nc(-c3cn4ncnc4c(Cc4ccc(F)cc4)n3)nc(O)c21 [Example 162B]", 100]
]}

[a] CCCCc1nc(-c2nc(O)c3c(n2)NC(=O)C3(C)c2ccc(C(F)(F)F)cn2)cn2ncnc12 (stereo not shown) [Example 159B]
[b] C[C@@]1(c2ccc(F)cc2)C(=O)Nc2nc(-c3cn4ncnc4c(CCC(F)(F)C(F)(F)F)n3)nc(C(N)=O)c21 [Example 177A]
[c] CC1(c2ccc(F)c(F)c2)C(=O)Nc2nc(-c3cn4ncnc4c(CCC(F)(F)C(F)(F)F)n3)nc(O)c21 (stereo not shown) [Example 169B]
(Q) Order field: Emax | Direction: descending (largest first) Response field: labels, in requested order.
(A) b, c, a
(b: 168%, c: 116%, a: 73%)
